Value source: patent US20250195521A1

Biological target: KRAS G12D (Homo sapiens (Human), UniProt P01116+P62937, G12D)
Sequence (P01116 other isoform, or with tags, fused parts or gaps G12D): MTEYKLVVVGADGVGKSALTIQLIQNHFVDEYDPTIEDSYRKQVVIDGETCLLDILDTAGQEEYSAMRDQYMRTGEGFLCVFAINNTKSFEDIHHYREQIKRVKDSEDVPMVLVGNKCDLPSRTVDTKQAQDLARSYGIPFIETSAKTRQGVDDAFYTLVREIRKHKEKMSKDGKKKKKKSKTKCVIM
Sequence (P62937 whole entry): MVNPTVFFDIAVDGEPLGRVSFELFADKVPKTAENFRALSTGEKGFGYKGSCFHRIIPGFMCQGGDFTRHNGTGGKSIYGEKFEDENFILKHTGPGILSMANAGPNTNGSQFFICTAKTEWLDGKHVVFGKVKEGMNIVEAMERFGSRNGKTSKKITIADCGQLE
Assay: Ras-Raf disruption/FRET/MOA assay (BRAF RBD, Cyclophilin A)
Format: biochemical
Details: read-out: KRAS G12D FRET IC50
QUANTITY NAME: IC50

Worked examples, 4 compounds total:
CCn1c(-c2cccnc2[C@H](C)OC)c2c3cc(ccc31)-c1cc(O)cc(c1)C[C@H](NS(=O)(=O)C1CC1)C(=O)N1CCC[C@H](N1)C(=O)OCC(C)(C)C2: > 10 µM
CCn1c(-c2cccnc2[C@H](C)OC)c2c3cc(ccc31)-c1cc(O)cc(c1)C[C@H](NC(=O)[C@H](C(C)C)N(C)C(=O)[C@H]1OCC[C@H]1N)C(=O)N1CCC[C@H](N1)C(=O)OCC(C)(C)C2: 0.1 to 1 µM
CCn1c(-c2cccnc2[C@H](C)OC)c2c3cc(ccc31)-c1cc(O)cc(c1)C[C@H](NC(=O)[C@H]1C[C@@H]1C)C(=O)N1CCC[C@H](N1)C(=O)OCC(C)(C)C2: > 10 µM
CCn1c(-c2ccccc2CCOC)c2c3cc(ccc31)-c1cc(O)cc(c1)C[C@H](NC(=O)[C@H](C(C)C)N(C)C(=O)CNC(=N)N)C(=O)N1CCC[C@H](N1)C(=O)OCC(C)(C)C2: 1 to 10 µM

// next entry
Q: Reported IC50, compound CCn1c(-c2cccnc2[C@H](C)OC)c2c3cc(ccc31)-c1csc(n1)C[C@H](NC(=O)N1CCC1)C(=O)N1CCC[C@H](N1)C(=O)OCC(C)(C)C2 [Compound A368] : ____
Ans: 1 to 10 µM
